Below is a list of entries, each paired with its recorded 响应 value.
Molecular target: T1, 人Nectin-4 (human, UniProt Q96NY8 32-349)
T1 construct: construct not described; also called human Nectin-4; PVRL4
T1 sequence (looked up): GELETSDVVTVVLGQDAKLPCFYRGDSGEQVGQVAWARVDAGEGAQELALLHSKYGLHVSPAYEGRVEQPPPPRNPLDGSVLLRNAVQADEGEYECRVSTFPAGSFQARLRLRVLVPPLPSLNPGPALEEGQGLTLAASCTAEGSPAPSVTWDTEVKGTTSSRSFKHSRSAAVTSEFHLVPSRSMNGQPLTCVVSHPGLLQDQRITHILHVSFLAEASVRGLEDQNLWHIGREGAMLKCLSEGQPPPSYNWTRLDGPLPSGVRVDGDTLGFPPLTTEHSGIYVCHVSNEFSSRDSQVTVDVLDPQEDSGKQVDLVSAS
Assay: BLI, VHH-Fc on anti-hIgG Fc probe, human Nectin-4 as analyte
Design: unit not given here
# print the numeric value only

Please give the measured 响应 for this binder: CMB7-9 (Fc fusion, Tested as VHH fused to human Fc; also called VHH-Fc; not shown: human Fc fused to the VHH) QVQLVESGGGLVQPGGSLRLSCAASGSIFSINAMGWYRQAPGKQRELVASITNGGSTKYDDSVKGRFTISRDNAKNTVYLQMNSLKPEDTAVYYCAAASLVVGGTWEYDTWGQGTLVTVSS
0.891

Here is the next binder: CMB7-10 (Fc fusion, Tested as VHH fused to human Fc; also called VHH-Fc; not shown: human Fc fused to the VHH) QVQLVESGGGLVQAGESLRLSCAASGSIFSINAMAWYRQAPGKQRELVAAITSGGSTKYADSVKGRFTISRDNAKNTVYLQMNSLKPEDTAVYYCAAMDRTTLEYDYWGQGTLVTVSS
0.891

Next entry: CMB7-22 (Fc fusion, Tested as VHH fused to human Fc; also called VHH-Fc; not shown: human Fc fused to the VHH) QVQLVESGGGLVQAGGSLRLSCAASGSIFSINAMGWFRQAPGKQRELVAAITSGGSTNYAVSVKGRFTISSDKAKNTVYLQMNSLKPEDTAVYYCAAARGEPFEYEYWGQGTLVTVSS
0.841

And what about the binder CMB7-12 (Fc fusion, Tested as VHH fused to human Fc; also called VHH-Fc; not shown: human Fc fused to the VHH) QVQLVESGGGLVQPGGSLRLACAASGSIFSINVMGWYRQAPGKQREYVASVSRGGSVKYVDSVKGRFTVSRDNAKNTMYLEMNSLKPEDTAIYFCGAETKMGRGFDSWGQGTQVTVSS ?
0.97
